Target: P. pyralis FLuc (Photinus pyralis, UniProt P08659)
Sequence (P08659 whole entry): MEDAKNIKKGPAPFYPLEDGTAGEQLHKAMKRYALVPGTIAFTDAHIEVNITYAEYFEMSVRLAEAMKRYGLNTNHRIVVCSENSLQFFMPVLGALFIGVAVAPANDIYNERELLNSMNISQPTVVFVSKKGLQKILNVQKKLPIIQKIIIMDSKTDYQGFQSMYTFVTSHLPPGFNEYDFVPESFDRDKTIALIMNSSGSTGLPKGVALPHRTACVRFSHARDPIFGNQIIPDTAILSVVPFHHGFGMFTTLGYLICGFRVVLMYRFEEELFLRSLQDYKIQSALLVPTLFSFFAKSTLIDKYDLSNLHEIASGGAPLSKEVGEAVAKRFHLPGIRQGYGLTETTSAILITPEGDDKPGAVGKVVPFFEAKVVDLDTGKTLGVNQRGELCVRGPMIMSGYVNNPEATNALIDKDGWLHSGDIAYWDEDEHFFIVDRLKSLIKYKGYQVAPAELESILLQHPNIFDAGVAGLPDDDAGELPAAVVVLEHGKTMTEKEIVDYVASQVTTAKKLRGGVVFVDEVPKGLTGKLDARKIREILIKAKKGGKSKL
Experiment: FLuc enzymatic luminescence assay, P. pyralis FLuc
Type: biochemical
Details: FLuc enzymatic assay; Clade S follow-up
measurementKind: pIC50 or pSDR50 FLuc E
Respond numerically, and do not add a unit to the figure.

Ask: Give recorded pIC50 or pSDR50 FLuc E. Cc1ccc(C2Cn3cnc(C(=O)N4CCC(C(=O)NCc5ccco5)CC4)c3CO2)cc1 (stereo not shown) [NCGC00449893-01]
Reply: 5.01

Ask: Give recorded pIC50 or pSDR50 FLuc E. COCCNC(=O)C1CCN(C(=O)c2ncn3c2COC(c2ccc(F)cc2)C3)CC1 (stereo not shown) [NCGC00449834-01]
Reply: 4.91

Ask: Give recorded pIC50 or pSDR50 FLuc E. COc1cccc(CNC(=O)C2CCN(C(=O)c3ncn4c3COC(c3ccc(C)cc3)C4)CC2)c1 (stereo not shown) [NCGC00449886-01]
Reply: 4.91

Ask: Give recorded pIC50 or pSDR50 FLuc E. Cc1ccc(C2Cn3cnc(C(=O)N4CCC(C(=O)NCc5ccccc5Cl)CC4)c3CO2)cc1 (stereo not shown) [NCGC00449891-01]
Reply: 4.96

Ask: Give recorded pIC50 or pSDR50 FLuc E. O=C(Nc1ccc(F)cc1)C1CCN(C(=O)c2ncn3c2COC(c2ccc(F)cc2)C3)CC1 (stereo not shown) [NCGC00449939-01]
Reply: 5.01

New cases:
Ask: Give recorded pIC50 or pSDR50 FLuc E. COc1ccc(C)cc1NC(=O)C1CCN(C(=O)c2ncn3c2COC(c2ccc(F)cc2)C3)CC1 (stereo not shown) [NCGC00449936-01]
Reply: 5.06

Ask: Give recorded pIC50 or pSDR50 FLuc E. CCc1ccc(NC(=O)C2CCN(C(=O)c3ncn4c3COC(c3ccc(F)cc3)C4)CC2)cc1 (stereo not shown) [NCGC00449925-01]
Reply: 4.96

----------
Target: ABL1-N-HiBiT kinase domain (Homo sapiens, UniProt P00519)
Sequence (P00519 233-500): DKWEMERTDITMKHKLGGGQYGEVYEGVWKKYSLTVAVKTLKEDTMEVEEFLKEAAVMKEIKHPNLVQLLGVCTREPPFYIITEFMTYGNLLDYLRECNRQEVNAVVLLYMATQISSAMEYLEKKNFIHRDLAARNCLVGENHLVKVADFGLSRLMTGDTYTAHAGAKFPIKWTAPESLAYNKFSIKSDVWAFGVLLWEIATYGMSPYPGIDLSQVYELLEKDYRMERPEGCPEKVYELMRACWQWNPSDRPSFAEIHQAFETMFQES
Assay: ABL1 peptide phosphorylation, Kinase-Glo Plus (KGP) assay, ABL1-N-HiBiT
Format: biochemical
Set-up: containing amino acid residues Asp233-Ser500; His10 (N); made in house; host or cells: E. coli BL21(DE3)
Conditions: ABL1-N-HiBiT qHTS, Kinase-Glo Plus (KGP) assay, average; read-out: ABL1 KGP Ave IC50
measurementKind: pIC50
Kindly note that pIC50 refers to -log10 of the concentration in mol/L and answer with the value alone.

Ask: Give recorded pIC50. Cn1cc(-c2cc3c(N4CCN(c5ncc([C@@](C)(N)c6ccc(F)cc6)cn5)CC4)ncnn3c2)cn1 [Avapritinib]
Reply: 4.85

Ask: Give recorded pIC50. COc1cc(N2CCC(N3CCN(C)CC3)CC2)ccc1Nc1ncc(Cl)c(Nc2ccccc2P(C)(C)=O)n1 [Brigatinib]
Reply: 5.04

Ask: Give recorded pIC50. CN1CCN(c2ccc(Nc3ncc4cc(C#N)c(=O)n(C5CCCC5)c4n3)cc2)CC1 [ON-123300]
Reply: 5.61

New cases:
Ask: Give recorded pIC50. Cc1ccc(-n2nc(C(C)(C)C)cc2NC(=O)NCc2cc(F)ccc2Oc2ccc3c(cnn3CCO)c2)cc1 [Pexmetinib]
Reply: 5.87

----------
Target: FLuc-C-HiBiT (firefly luciferase) (Photinus pyralis, UniProt P08659, form not given/L550V)
Sequence (P08659 2-550 L550V, form open): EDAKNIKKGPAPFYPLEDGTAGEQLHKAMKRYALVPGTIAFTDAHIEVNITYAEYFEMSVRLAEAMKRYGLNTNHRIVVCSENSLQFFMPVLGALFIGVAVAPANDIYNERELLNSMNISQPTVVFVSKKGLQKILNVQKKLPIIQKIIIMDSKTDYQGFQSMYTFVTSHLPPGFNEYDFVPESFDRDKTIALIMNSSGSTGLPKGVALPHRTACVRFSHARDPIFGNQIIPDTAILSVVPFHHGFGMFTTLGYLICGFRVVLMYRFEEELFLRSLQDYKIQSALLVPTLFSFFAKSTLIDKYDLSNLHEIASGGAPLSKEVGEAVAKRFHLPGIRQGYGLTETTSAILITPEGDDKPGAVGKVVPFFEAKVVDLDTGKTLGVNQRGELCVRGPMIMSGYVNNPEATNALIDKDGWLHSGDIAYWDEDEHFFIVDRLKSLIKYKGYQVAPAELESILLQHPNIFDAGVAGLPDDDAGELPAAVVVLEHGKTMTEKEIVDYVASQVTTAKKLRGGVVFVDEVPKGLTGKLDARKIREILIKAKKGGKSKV
Experiment: Firefly luciferase (FLuc) enzymatic luminescence assay, FLuc-C-HiBiT
Type: biochemical
Set-up: key: % normalized; no enzyme control = 100% inhibition, DMSO = 0
Settings: 10 nM FLuc-C-HiBiT; normalized activity; Log [Compound], M -6.87
# FLuc Enzyme values compiled below
Respond numerically, and do not add a unit to the figure.

Ask: Give recorded FLuc Enzyme. CC(CNC(=O)C1CCN(C(=O)c2ncn3c2COC(c2ccccc2)C3)CC1)c1ccccc1 (stereo not drawn) [compound 00449795]
Reply: -0.00581

Ask: Give recorded FLuc Enzyme. Fc1ccc(-c2cn3cc(Cc4ccccc4)sc3n2)cc1 [compound 00102110]
Reply: -22.4

Here is the next item to consider.
Ask: Give recorded FLuc Enzyme. CNC(=O)c1cccc2c1CCN2C(=O)Nc1ccc(C)cc1 [compound 00430160]
Reply: -17.4

----------
Target: P. pyralis FLuc (Photinus pyralis, UniProt P08659)
Test: FLuc enzymatic luminescence assay, P. pyralis FLuc
Type: biochemical
Settings: FLuc enzymatic assay; Clade S follow-up
# pIC50 or pSDR50 FLuc E values compiled below

The cases that follow already have their pIC50 or pSDR50 FLuc E on record.
Ask: Give recorded pIC50 or pSDR50 FLuc E. Cc1ccc(NC(=O)C2CCN(C(=O)c3ncn4c3COC(c3ccccc3)C4)CC2)cc1 (centres unmarked)
Reply: 5.61

Ask: Give recorded pIC50 or pSDR50 FLuc E. O=C(NCc1ccccc1)C1CCN(C(=O)c2ncn3c2COC(c2ccc(Cl)cc2)C3)CC1 (centres unmarked)
Reply: 4.91

Ask: Give recorded pIC50 or pSDR50 FLuc E. Cc1ccc(C2Cn3cnc(C(=O)N4CCC(C(=O)NC5CCCCC5)CC4)c3CO2)cc1 (centres unmarked)
Reply: 4.91

Ask: Give recorded pIC50 or pSDR50 FLuc E. Cc1ccc(C2Cn3cnc(C(=O)N4CCC(C(=O)NCc5ccccc5)CC4)c3CO2)cc1 (centres unmarked)
Reply: 4.96

Ask: Give recorded pIC50 or pSDR50 FLuc E. Cc1ccc(C2Cn3cnc(C(=O)N4CCC(C(=O)NCCCc5ccccc5)CC4)c3CO2)cc1 (centres unmarked)
Reply: 5.01

Ask: Give recorded pIC50 or pSDR50 FLuc E. Cc1ccc(C2Cn3cnc(C(=O)N4CCC(C(=O)NCc5ccccc5F)CC4)c3CO2)cc1 (centres unmarked)
Reply: 4.91

Ask: Give recorded pIC50 or pSDR50 FLuc E. O=C(NCc1ccc(F)cc1)C1CCN(C(=O)c2ncn3c2COC(c2ccc(Cl)cc2)C3)CC1 (centres unmarked)
Reply: 4.86

Here is the next item to consider.
Ask: Give recorded pIC50 or pSDR50 FLuc E. O=C(NC1CCCCC1)C1CCN(C(=O)c2ncn3c2COC(c2ccc(Cl)cc2)C3)CC1 (centres unmarked)
Reply: 4.96

----------
Molecular target: P. pyralis FLuc (Photinus pyralis, UniProt P08659)
Test: FLuc enzymatic luminescence assay, P. pyralis FLuc
Type: biochemical
Details: FLuc enzymatic assay; Clade S follow-up; read-out: IC50 or SDR50 (mM) FLuc E
Kindly apply the following: yes if IC50 is less than 0.01 mM, no in every other case.

Ask: hey, is IC50 for CCc1ccc(NC(=O)C2CCN(C(=O)c3ncn4c3COC(c3ccccc3)C4)CC2)cc1 (stereo not shown) lower than 0.01 mM or not?
Reply: yes

New cases:
Ask: hey, is IC50 for CC(C)c1cccc(NC(=O)C2CCN(C(=O)c3ncn4c3COC(c3ccccc3)C4)CC2)c1 (stereo not shown) lower than 0.01 mM or not?
Reply: yes

Ask: hey, is IC50 for O=C(NC1CCCCC1)C1CCN(C(=O)c2ncn3c2COC(c2ccc(Cl)cc2)C3)CC1 (stereo not shown) lower than 0.01 mM or not?
Reply: no

Ask: hey, is IC50 for COc1ccc(NC(=O)C2CCN(C(=O)c3ncn4c3COC(c3ccccc3)C4)CC2)cc1 (stereo not shown) lower than 0.01 mM or not?
Reply: yes

Ask: hey, is IC50 for COCCNC(=O)C1CCN(C(=O)c2ncn3c2COC(c2ccc(F)cc2)C3)CC1 (stereo not shown) lower than 0.01 mM or not?
Reply: no

----------
Molecular target: FLuc-C-HiBiT (firefly luciferase) (Photinus pyralis, UniProt P08659, form not given/L550V)
Assay: Firefly luciferase (FLuc) enzymatic luminescence assay, FLuc-C-HiBiT
Format: biochemical
Set-up: key: % normalized; no enzyme control = 100% inhibition, DMSO = 0
Conditions: sheet Figure 1g (values as in Figure 1f); normalized activity; Log [Compound], M -8.30
Kindly apply the following: criterion met if FLuc Enzyme is less than 3, criterion not met in every other case.

Would you please look over these solved cases?
Ask: hey, is FLuc Enzyme for Fc1ccc(-c2cn3cc(Cc4ccccc4)sc3n2)cc1 lower than 3 or not?
Reply: criterion met

Ask: hey, is FLuc Enzyme for COc1ccc(-c2nc(-c3ccc(C(=O)O)cc3)no2)cc1 lower than 3 or not?
Reply: criterion met

Ask: hey, is FLuc Enzyme for O=C(O)c1cccc2c1CCN2C(=O)Nc1ccc(F)cc1 lower than 3 or not?
Reply: criterion not met

Ask: hey, is FLuc Enzyme for O=C(O)CCSc1nnc(-c2ccc(Cl)cc2Cl)o1 lower than 3 or not?
Reply: criterion not met

Ask: hey, is FLuc Enzyme for Cc1ccc(-n2ncc3c(N4CCCCCC4)ncnc32)cc1 lower than 3 or not?
Reply: criterion met

Ask: hey, is FLuc Enzyme for CNC(=O)c1cccc2c1CCN2C(=O)Nc1ccc(C)cc1 lower than 3 or not?
Reply: criterion not met

New cases:
Ask: hey, is FLuc Enzyme for CC(CNC(=O)C1CCN(C(=O)c2ncn3c2COC(c2ccccc2)C3)CC1)c1ccccc1 (centres unmarked) lower than 3 or not?
Reply: criterion not met

Ask: hey, is FLuc Enzyme for CC1CCCN(c2ncnc3c2cnn3-c2ccccc2)C1 (centres unmarked) lower than 3 or not?
Reply: criterion not met
